The origin of these recorded values is patent US20140135310A1.

Consider the following molecules; for each one, report its inhibition at 1 µM.
Biological target: 5-HT7 receptor (Homo sapiens)
Construct: purchased PerkinElmer
Sequence (P34969 whole entry): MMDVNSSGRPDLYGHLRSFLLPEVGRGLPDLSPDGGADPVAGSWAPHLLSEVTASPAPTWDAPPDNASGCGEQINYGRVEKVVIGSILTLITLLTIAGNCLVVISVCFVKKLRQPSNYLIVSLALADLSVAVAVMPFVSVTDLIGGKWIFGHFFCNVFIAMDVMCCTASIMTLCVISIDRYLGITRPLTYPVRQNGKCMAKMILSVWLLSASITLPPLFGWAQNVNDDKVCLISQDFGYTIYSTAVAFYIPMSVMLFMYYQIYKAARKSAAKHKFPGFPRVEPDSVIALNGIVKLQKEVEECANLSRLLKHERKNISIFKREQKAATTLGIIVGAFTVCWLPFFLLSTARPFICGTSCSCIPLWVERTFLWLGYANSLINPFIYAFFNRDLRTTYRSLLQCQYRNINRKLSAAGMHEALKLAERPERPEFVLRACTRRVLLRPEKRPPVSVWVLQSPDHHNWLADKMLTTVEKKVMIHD
Test: Radioligand binding assay, serotoninergic 5-HT7 receptors
Conditions: binding assay result in %, Table 5a
Source text: The specific ligand binding to the receptors is defined as the difference between the total binding and the non-specific binding determined in the presence of the excess of unlabelled ligand. The results are expressed as a percent of control specific binding ((measured specific binding/control specific binding)×100) and as a percent inhibition of control specific binding (100−((measured specific binding/control specific binding)×100)) obtained in the presence of the test compounds. […]
Response body: numeric value in %, unit text excluded.

// query Which measured inhibition at 1 µM value corresponds to O=S(=O)(NCC1CCN(CCCc2noc3cc(F)ccc23)C1)c1ccc(-c2ccccc2)cc1 (centres unmarked) ?
// result 100

// query Need inhibition at 1 µM of CC1(C)Cc2cccc(OCCN3CCC(CNS(=O)(=O)c4cccc(O)c4)C3)c2O1 (centres unmarked) , thanks.
// result 85

// query // lookup inhibition at 1 µM for O=S(=O)(NCC1CCN(CCCc2noc3cc(F)ccc23)C1)c1ccc2c(c1)CCO2 (centres unmarked)
// result 92

// query Look up inhibition at 1 µM for this molecule: O=S(=O)(NCC1CCN(CCCc2noc3cc(F)ccc23)C1)c1ccc2c(c1)OCO2 (centres unmarked)
// result 81

// query # get_value(readout='inhibition at 1 µM', item= CCCc1ccc(S(=O)(=O)NCC2CN(CCCc3noc4cc(F)ccc34)C2)cc1 )
// result 93

// query Using the record for O=S(=O)(NCC1CN(CCOc2cccc3c2OCCO3)C1)c1ccc(F)cc1 , report its inhibition at 1 µM.
// result 95

// query Could you tell me which inhibition at 1 µM is on file for Cc1ccc2sc(S(=O)(=O)NC3CCN(CCCc4noc5cc(F)ccc45)C3)cc2c1 (centres unmarked) ?
// result 91

// query Can you look up the measured inhibition at 1 µM of O=S(=O)(NCC1CCN(CCOc2cccc3ccccc23)C1)c1ccc(F)c(F)c1 (centres unmarked) for me?
// result 102

// query What value of inhibition at 1 µM has been reported for the following molecule? O=C1Cc2cc(S(=O)(=O)NCC3CN(CCOc4cccc5c4OCCO5)C3)ccc2N1
// result 90

// query Please give the measured inhibition at 1 µM for this molecule: CC(C)(C)c1ccc(S(=O)(=O)NC2CCN(CCCc3noc4cc(F)ccc34)CC2)cc1
// result 90

// query # inhibition at 1 µM lookup, item O=S(=O)(NCC1CCN(CCOc2nsc3ccccc23)C1)c1ccc2ccccc2c1 (centres unmarked)
// result 68

// query Give the measured inhibition at 1 µM of O=S(=O)(N[C@@H]1CCN(CCCc2noc3cc(F)ccc23)C1)c1ccc2cc(Cl)ccc2c1 .
// result 93

// query Need inhibition at 1 µM of O=S(=O)(NC1CCN(CCCc2noc3cc(F)ccc23)C1)c1ccc2cc(Cl)ccc2c1 (centres unmarked) , thanks.
// result 95

// query Find the recorded inhibition at 1 µM belonging to O=S(=O)(NCC1CCN(CCOc2nsc3ccccc23)C1)c1cccc(O)c1 (centres unmarked) and report it.
// result 71

// query Need inhibition at 1 µM, item O=S(=O)(NC1CCN(CCCc2c[nH]c3ccc(Cl)cc23)C1)c1ccccc1 (centres unmarked)
// result 84

// query For Cc1cccc(S(=O)(=O)NC2CCN(CCOc3cccc4[nH]ccc34)C2)c1 (centres unmarked) , what is its reported inhibition at 1 µM?
// result 90

// query Look up inhibition at 1 µM: Cc1ccc2sc(S(=O)(=O)N[C@@H]3CCN(CCCc4noc5cc(F)ccc45)C3)cc2c1
// result 92
